assay.comment: PDMS sheets cleaned by Soxhlet with ethyl acetate; batch shaking method with a mixture of all chemicals at several PDMS-mass to water-volume ratios and spiked levels; vials shaken on an orbital shaker at room temperature in the dark, sampled at two equilibration times; PDMS extracts and water quantified by LC-HRMS (Orbitrap); D from the slope of C_PDMS on C_w or their ratio; value is the mean over that pH's experiments (individual experiments in the SI's concentrations table), sd is the table's stdev
condition.info: PDMS (polydimethylsiloxane silicone sheet); phosphate buffer at three target pH values (the paper's methods); pH 3
value.kind: log D PDMS/w (apparent distribution ratio at the stated pH)

// below: answered compounds
- compound: "Cc1cccc(C)c1N(Cn1cccn1)C(=O)CS(C)=O (stereo not shown)"
  result: "0.5745 log units; D and K as the pape"
- compound: "Clc1ccccc1C(c1ccccc1)(c1ccccc1)n1ccnc1"
  result: "2.324 log units; D and K as the pape"
- compound: "CN(C)C(=O)Nc1ccccc1"
  result: "0.45 log units; D and K as the pape"
- compound: "CCNc1ccc2c(C)cc(=O)oc2c1"
  result: "1.914 log units; D and K as the pape"
- compound: "O=C(/C=C/C=C/c1ccc2c(c1)OCO2)N1CCCCC1"
  result: "3.24 log units; D and K as the pape"

Consider the compound Oc1c(Br)cc(Cl)cc1Cc1cc(Cl)cc(Br)c1O and give its measured log D PDMS/w (apparent distribution ratio at the stated pH). 3.724 log units; D and K as the pape

Consider the compound CCCCCCCCn1sccc1=O and give its measured log D PDMS/w (apparent distribution ratio at the stated pH). 3.047 log units; D and K as the pape

Consider the compound CCC1(c2ccccc2)C(=O)NCNC1=O and give its measured log D PDMS/w (apparent distribution ratio at the stated pH). 1.032 log units; D and K as the pape

Consider the compound CCN(CC)c1ccc2c(C)cc(=O)oc2c1 and give its measured log D PDMS/w (apparent distribution ratio at the stated pH). 2.535 log units; D and K as the pape

Consider the compound Clc1ccc(COC(Cn2ccnc2)c2ccc(Cl)cc2Cl)c(Cl)c1 (stereo not shown) and give its measured log D PDMS/w (apparent distribution ratio at the stated pH). 2.616 log units; D and K as the pape

Consider the compound Clc1ccc2n[nH]nc2c1 and give its measured log D PDMS/w (apparent distribution ratio at the stated pH). 0.7386 log units; D and K as the pape

Consider the compound NC(=O)Nc1ccc(Cl)c(Cl)c1 and give its measured log D PDMS/w (apparent distribution ratio at the stated pH). 0.5975 log units; D and K as the pape

Consider the compound N[C@@H](Cc1cc(I)c(Oc2cc(I)c(O)c(I)c2)c(I)c1)C(=O)O and give its measured log D PDMS/w (apparent distribution ratio at the stated pH). 0.632 log units; D and K as the pape

---

assay.comment: PDMS sheets cleaned by Soxhlet with ethyl acetate; batch shaking method with a mixture of all chemicals at several PDMS-mass to water-volume ratios and spiked levels; vials shaken on an orbital shaker at room temperature in the dark, sampled at two equilibration times; PDMS extracts and water quantified by LC-HRMS (Orbitrap); D from the slope of C_PDMS on C_w or their ratio; value is the mean over that pH's experiments (individual experiments in the SI's concentrations table), sd is the table's stdev
condition.info: PDMS (polydimethylsiloxane silicone sheet); phosphate buffer at three target pH values (the paper's methods); pH 11.5
value.kind: log D PDMS/w (apparent distribution ratio at the stated pH)

// below: answered compounds
- compound: "CC(C)OC(=O)C(C)(C)Oc1ccc(C(=O)c2ccc(Cl)cc2)cc1"
  result: "4.425 log units; D and K as the pape"
- compound: "Cc1c(C(C)C)c(=O)n(-c2ccccc2)n1C"
  result: "1.65 log units; D and K as the pape"
- compound: "COCCOCCOCCOCCOC"
  result: "0.53 log units; D and K as the pape"
- compound: "O=c1c2ccccc2[nH]c2ccccc12"
  result: "1.334 log units; D and K as the pape"
- compound: "O=C1NCCN1Cc1ccc(Cl)nc1"
  result: "1.451 log units; D and K as the pape"

In the following, a different compound is considered.
Consider the compound N#Cc1nn(-c2c(Cl)cc(C(F)(F)F)cc2Cl)c(N)c1S(=O)(=O)C(F)(F)F and give its measured log D PDMS/w (apparent distribution ratio at the stated pH). 2.192 log units; D and K as the pape
